As shown below, each of these variants has a reported protein stability index value.
B1: KLHL13 (parent)
chain: TGEFLKLPFERLAFVLSSNSLKHC

Variants of: B1
Assay: protein stability index of a GFP-peptide fusion (GPS, HEK-293T) (PSI 1-6); higher = more stable;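 note: lentivirally expressed fusions sorted by FACS into six bins by GFP to DsRed ratio, PSI derived from sequencing read proportions per bin multiplied by bin number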
Details: c terminus: a fixed tail appended
Write the value as a bare number.

(Q) Please list protein stability index recorded for the variant "K22Y"
(A) 1.96

(Q) Please list protein stability index recorded for the variant "S18H"
(A) 2.48

(Q) Please list protein stability index recorded for the variant "K22E"
(A) 2.2

(Q) Please list protein stability index recorded for the variant "E10M"
(A) 3.02

(Q) Please list protein stability index recorded for the variant "L12E"
(A) 1.96

(Q) Please list protein stability index recorded for the variant "K22I"
(A) 2.96
